Mark Fulfilled for reported log10 vapour pressure (mmHg) of 0.2 or greater; mark Not fulfilled for anything smaller.

Some solved cases for reference:
Clc1c(Cl)c(Cl)c(Cl)c(Cl)c1Cl ... Not fulfilled
BrC1CCC(Br)C(Br)CCC(Br)C(Br)CCC1Br (centres undefined) ... Not fulfilled

[Q] API: above_or_equal(metric=log10 vapour pressure (mmHg), cutoff=0.2) for item CC(C)C(O)C(C)(C)CO (centres undefined)
[A] Not fulfilled

[Q] API: above_or_equal(metric=log10 vapour pressure (mmHg), cutoff=0.2) for item `ClCCOCCCl`
[A] Not fulfilled

[Q] API: above_or_equal(metric=log10 vapour pressure (mmHg), cutoff=0.2) for item `CCCCCl`
[A] Fulfilled

[Q] API: above_or_equal(metric=log10 vapour pressure (mmHg), cutoff=0.2) for item `ClC(Cl)C(Cl)(Cl)Cl`
[A] Fulfilled

[Q] API: above_or_equal(metric=log10 vapour pressure (mmHg), cutoff=0.2) for item `C1COC1`
[A] Fulfilled

[Q] API: above_or_equal(metric=log10 vapour pressure (mmHg), cutoff=0.2) for item `CSC#N`
[A] Fulfilled

[Q] API: above_or_equal(metric=log10 vapour pressure (mmHg), cutoff=0.2) for item `Brc1ccc(Oc2ccc(Br)cc2Br)c(Br)c1`
[A] Not fulfilled

[Q] API: above_or_equal(metric=log10 vapour pressure (mmHg), cutoff=0.2) for item OC1CCCCC1c1ccccc1 (centres undefined)
[A] Not fulfilled

---

value type: melting point
In your response, the unit should come after the numeric value.

CN(C)c1ccc(Br)cc1 ... 55 °C
O=C(CCl)CCl ... 45 °C
C=C(Cl)C(=O)O ... 66 °C

[Q] Please look up its melting point: `O=[N+]([O-])c1ccc(C2CCCCC2)cc1`
[A] 58.5 °C

[Q] Please look up its melting point: `CBr`
[A] -93.7 °C

[Q] Please look up its melting point: `CN(C)O`
[A] 108 °C

---

Mark condition met for reported melting point of 100 °C or greater; mark condition not met for anything smaller.

Some solved cases for reference:
CC1(C)C2CCC1(C)C(Cl)C2 (stereo not drawn) ... condition met
O=C[C@@H](O)C(O)CO (stereo in doubt) ... condition met

[Q] API: above_or_equal(metric=melting point, cutoff=100 °C) for item CCCC(C)Br (stereo not drawn)
[A] condition not met

[Q] API: above_or_equal(metric=melting point, cutoff=100 °C) for item `C=CCC(C)(C)C`
[A] condition not met

[Q] API: above_or_equal(metric=melting point, cutoff=100 °C) for item `CCN(C)C(=O)COC(=O)c1ccccc1`
[A] condition not met

[Q] API: above_or_equal(metric=melting point, cutoff=100 °C) for item `CCCCCCCCOC(=O)CCCC`
[A] condition not met

[Q] API: above_or_equal(metric=melting point, cutoff=100 °C) for item `CC(=O)Oc1ccc([N+](=O)[O-])cc1`
[A] condition not met

[Q] API: above_or_equal(metric=melting point, cutoff=100 °C) for item CC1(c2ccccc2)OC(C(=O)O)=CC1=O (stereo not drawn)
[A] condition met

[Q] API: above_or_equal(metric=melting point, cutoff=100 °C) for item `C1=CCCCC=C1`
[A] condition not met

[Q] API: above_or_equal(metric=melting point, cutoff=100 °C) for item `COc1cccc(C(=O)O)c1OC`
[A] condition met

[Q] API: above_or_equal(metric=melting point, cutoff=100 °C) for item `COC(=O)c1c(Cl)nn(C)c1S(=O)(=O)NC(=O)Nc1nc(OC)cc(OC)n1`
[A] condition met

[Q] API: above_or_equal(metric=melting point, cutoff=100 °C) for item `Cc1ccc(CC=O)cc1`
[A] condition not met

[Q] API: above_or_equal(metric=melting point, cutoff=100 °C) for item `Cc1ccc(C(=O)Cl)cc1`
[A] condition not met

[Q] API: above_or_equal(metric=melting point, cutoff=100 °C) for item `CSc1nnc(C(C)(C)C)c(=O)n1N`
[A] condition met

[Q] API: above_or_equal(metric=melting point, cutoff=100 °C) for item OC(c1ccccc1)c1ccc(Cl)cc1 (stereo not drawn)
[A] condition not met

[Q] API: above_or_equal(metric=melting point, cutoff=100 °C) for item `C=CCn1c(N)cc(=O)n(CC)c1=O`
[A] condition met

[Q] API: above_or_equal(metric=melting point, cutoff=100 °C) for item `C#C[C@]1(O)CC[C@H]2[C@@H]3CCC4=Cc5oncc5C[C@]4(C)[C@H]3CC[C@@]21C`
[A] condition met

[Q] API: above_or_equal(metric=melting point, cutoff=100 °C) for item `O=c1ccc2cc(Cl)ccc2o1`
[A] condition met

src = the OPERA property sets (Mansouri et al. 2018)
